Documented pIC50 across a set of compounds
biological target: sodium iodide symporter (NIS) (Rattus norvegicus, UniProt Q63008); construct: endogenous in cells; host or cells: FRTL5 (rat thyroid-derived cells); assay: radioiodide uptake assay in FRTL5 cells (24-well plate); format: cell-based; conditions: 60 min, NaI 10 μM, averaged from two to four independent experiments, read-out: IC50 against iodide uptake in FRTL5 cells
Sequence (Q63008 whole entry): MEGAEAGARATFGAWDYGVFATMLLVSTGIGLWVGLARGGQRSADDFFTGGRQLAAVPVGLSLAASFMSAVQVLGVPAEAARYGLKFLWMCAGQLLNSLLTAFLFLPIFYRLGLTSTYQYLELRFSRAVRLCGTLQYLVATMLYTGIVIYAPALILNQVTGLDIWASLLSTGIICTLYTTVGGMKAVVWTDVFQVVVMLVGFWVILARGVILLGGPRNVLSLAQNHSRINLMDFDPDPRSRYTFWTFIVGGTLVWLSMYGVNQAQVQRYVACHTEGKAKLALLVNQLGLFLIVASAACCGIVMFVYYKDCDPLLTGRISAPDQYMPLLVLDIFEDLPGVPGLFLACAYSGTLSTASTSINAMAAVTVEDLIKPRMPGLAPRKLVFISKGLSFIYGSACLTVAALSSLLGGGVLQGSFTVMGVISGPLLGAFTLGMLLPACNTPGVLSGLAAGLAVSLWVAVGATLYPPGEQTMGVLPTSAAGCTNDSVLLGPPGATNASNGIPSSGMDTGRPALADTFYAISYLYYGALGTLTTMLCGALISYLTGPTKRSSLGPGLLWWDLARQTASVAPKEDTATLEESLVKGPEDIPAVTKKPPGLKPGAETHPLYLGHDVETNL
// scale note: pIC50 = -log10(conc_M); give the bare number

In the examples that follow, each entry is paired with its recorded pIC50.
| compound | pIC50 |
| --- | --- |
| Nc1cccc(C2OCCc3c2[nH]c2ccccc32)c1 (stereo not shown) | 8.96 |
| COc1ccc(F)c(C2OCCc3c2[nH]c2ccccc32)c1 (stereo not shown) | 7.24 |
| c1cc2c(c(C3OCCc4c3[nH]c3ccccc43)c1)OCO2 (stereo not shown) | 9.39 |
| O=[N+]([O-])c1cccc(C2NCCc3c2oc2ccccc32)c1 (stereo not shown) | 6.70 |
| Fc1ccc(F)c(C2OCCc3c2[nH]c2ccccc32)c1 (stereo not shown) | 6.77 |

What value of pIC50 has been recorded for this entry: O=[N+]([O-])c1cccc(C2OCCc3c2[nH]c2ccccc32)c1 (stereo not shown)
8.28

Queued: Fc1ccc(C2OCCc3c2[nH]c2ccccc32)cc1Cl (stereo not shown)
6.70

For O=[N+]([O-])c1cccc(C2SCCc3c2[nH]c2ccccc32)c1 (stereo not shown) then?
6.85

Then Clc1cccc(C2OCCc3c2[nH]c2ccccc32)c1 (stereo not shown) ?
6.85

Moving on to the next compound: Brc1cccc(C2OCCc3c2[nH]c2ccccc32)c1 (stereo not shown)
6.77
